- STUDY_TARGET: TRAP1 enzyme (Homo sapiens, UniProt Q12931)
- Construct: 150 nM Trap1 enzyme was incubated with various concentrations of the test compound
- Sequence (Q12931 60-704): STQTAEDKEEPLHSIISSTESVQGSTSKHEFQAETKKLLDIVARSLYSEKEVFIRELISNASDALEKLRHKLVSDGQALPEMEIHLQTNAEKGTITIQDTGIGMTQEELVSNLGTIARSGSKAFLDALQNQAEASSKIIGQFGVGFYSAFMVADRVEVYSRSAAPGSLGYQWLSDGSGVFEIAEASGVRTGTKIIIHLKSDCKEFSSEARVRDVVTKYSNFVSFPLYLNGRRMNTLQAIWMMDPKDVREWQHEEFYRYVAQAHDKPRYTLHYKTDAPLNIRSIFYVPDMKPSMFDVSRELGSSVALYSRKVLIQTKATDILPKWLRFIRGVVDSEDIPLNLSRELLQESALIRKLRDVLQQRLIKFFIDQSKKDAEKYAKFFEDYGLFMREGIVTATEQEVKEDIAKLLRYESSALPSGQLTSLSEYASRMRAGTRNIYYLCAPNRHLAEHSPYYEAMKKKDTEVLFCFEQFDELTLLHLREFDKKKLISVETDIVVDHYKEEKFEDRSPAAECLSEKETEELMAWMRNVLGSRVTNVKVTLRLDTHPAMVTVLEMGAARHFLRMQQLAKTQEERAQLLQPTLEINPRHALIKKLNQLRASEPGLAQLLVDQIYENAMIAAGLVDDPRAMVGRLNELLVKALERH
- ASSAY_NOTES: ADP Glo assay of TRAP1 ATPase activity
- Assay type: biochemical
- RUN_CONDITIONS: concentration for half maximal activation; read-out: ADP GLO DRC: GeoMean EC50
QUANTITY_NAME: EC50

Reference set, count: 3
> print(dat)
                               input.smiles      reported
1  COc1ncc(NC(=O)c2csc(-c3ccccc3)n2)cc1S(=O)(=O)Nc1ccnc(C(F)(F)F)c1  20 to 100 µM
2  COc1ncc(NC(=O)c2scc(C)c2Cl)cc1S(=O)(=O)Nc1c(C)cccc1C   10 to 20 µM
3  COc1ncc(NC(=O)c2csc(-c3ccccc3)n2)cc1S(=O)(=O)Nc1ccc(C(F)(F)F)cn1  20 to 100 µM

Continue with the next compound.
// COc1ncc(NC(=O)c2coc(-c3ccccc3)n2)cc1S(=O)(=O)Nc1nc(C(C)(C)C)ns1 : EC50 value = 20 to 100 µM

###

Each entry below carries its recorded activation at 50 µM.
- STUDY_TARGET: TRAP1 enzyme (Homo sapiens, UniProt Q12931)
- Construct: 150 nM Trap1 enzyme was incubated with various concentrations of the test compound
- ASSAY_NOTES: ADP Glo assay of TRAP1 ATPase activity
- Assay type: biochemical
- RUN_CONDITIONS: 1 h; compound concentration 50 μM; read-out: ADP-Glo Percent Activation at 50 μM

Field: example entries. Status: answers known.
> print(dat)
                                   molecule                              study.target     reported
1  COc1ncc(NC(=O)c2cn[nH]c2C)cc1S(=O)(=O)Nc1c(C)cccc1C [compound 2724]  TRAP1 enzyme (Homo sapiens, UniProt Q12931)  120 to 150%
2  COc1ncc(NC(=O)c2cccc(CN(C)C)c2)cc1S(=O)(=O)Nc1c(C)cccc1C [compound 2631]  TRAP1 enzyme (Homo sapiens, UniProt Q12931)  151 to 180%
3  COc1ncc(NC(=O)c2cccc(CN3CCCC3)c2)cc1S(=O)(=O)Nc1c(C)cccc1C [compound 2591]  TRAP1 enzyme (Homo sapiens, UniProt Q12931)  151 to 180%
4  COc1ncc(NC(=O)c2snnc2C2CC2)cc1S(=O)(=O)Nc1c(C)cccc1C [compound 2720]  TRAP1 enzyme (Homo sapiens, UniProt Q12931)  181 to 352%
5  COc1ncc(NC(=O)c2cnn(C3CCCCC3)c2)cc1S(=O)(=O)Nc1c(C)cccc1C [compound 2700]  TRAP1 enzyme (Homo sapiens, UniProt Q12931)  181 to 352%

The reported activation at 50 µM of the molecule COc1ncc(NC(=O)c2cccc3c2CCCC3)cc1S(=O)(=O)Nc1c(C)cccc1C [compound 2574] was 151 to 180%

Recorded result, COc1cc(C(=O)Nc2cnc(OC)c(S(=O)(=O)Nc3c(C)cccc3C)c2)n(C)n1 [compound 2627] , activation at 50 µM: 151 to 180%

get_value(item= COc1ncccc1C(=O)Nc1cnc(OC)c(S(=O)(=O)Nc2c(C)cccc2C)c1 [compound 2535] , readout=activation at 50 µM) returns 151 to 180%

###

- STUDY_TARGET: TRAP1 enzyme (Homo sapiens)
- Construct: 150 nM Trap1 enzyme was incubated with various concentrations of the test compound
- Sequence (Q12931 60-704): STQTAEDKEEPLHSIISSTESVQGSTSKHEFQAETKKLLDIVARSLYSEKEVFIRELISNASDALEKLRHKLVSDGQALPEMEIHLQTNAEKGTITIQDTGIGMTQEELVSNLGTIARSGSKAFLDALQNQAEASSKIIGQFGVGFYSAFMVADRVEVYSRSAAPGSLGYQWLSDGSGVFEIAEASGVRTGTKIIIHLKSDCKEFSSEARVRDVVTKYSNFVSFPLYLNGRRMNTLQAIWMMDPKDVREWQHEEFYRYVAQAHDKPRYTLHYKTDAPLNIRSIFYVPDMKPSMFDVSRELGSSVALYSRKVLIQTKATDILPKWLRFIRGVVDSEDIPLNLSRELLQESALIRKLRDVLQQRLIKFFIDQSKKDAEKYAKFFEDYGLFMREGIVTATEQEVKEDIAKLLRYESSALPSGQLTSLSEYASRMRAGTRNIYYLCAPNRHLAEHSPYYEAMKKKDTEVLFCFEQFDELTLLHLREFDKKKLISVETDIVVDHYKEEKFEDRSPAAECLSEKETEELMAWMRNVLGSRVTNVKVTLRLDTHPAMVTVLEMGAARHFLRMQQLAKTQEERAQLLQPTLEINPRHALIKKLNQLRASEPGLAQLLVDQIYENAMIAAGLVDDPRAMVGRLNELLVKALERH
- ASSAY_NOTES: ADP Glo assay of TRAP1 ATPase activity
- Type: biochemical
- RUN_CONDITIONS: maximal percent activation; read-out: ADP GLO DRC: Mean Emax
Quick reference for Emax among some compounds

> print(dat)
                               input.smiles                 study.target     reported
1  COc1ncc(NC(=O)c2ncc(-c3ccccc3)o2)cc1S(=O)(=O)Nc1c(Cl)cccc1C(F)(F)F  TRAP1 enzyme (Homo sapiens)  160 to 199%
2  COc1ncc(NC(=O)c2ncc(-c3ccccc3)o2)cc1S(=O)(=O)Nc1ccc2cnoc2c1  TRAP1 enzyme (Homo sapiens)  200 to 300%

// next item, Emax requested
According to the records, this compound O=C(Nc1cc(S(=O)(=O)Nc2ccc(Cl)cc2)cc[n+]1[O-])c1cnc(-c2ccccc2)[nH]1 displays Emax of 160 to 199%

###

- STUDY_TARGET: TRAP1 enzyme (Homo sapiens, UniProt Q12931)
- Construct: 150 nM Trap1 enzyme was incubated with various concentrations of the test compound
- Sequence (Q12931 60-704): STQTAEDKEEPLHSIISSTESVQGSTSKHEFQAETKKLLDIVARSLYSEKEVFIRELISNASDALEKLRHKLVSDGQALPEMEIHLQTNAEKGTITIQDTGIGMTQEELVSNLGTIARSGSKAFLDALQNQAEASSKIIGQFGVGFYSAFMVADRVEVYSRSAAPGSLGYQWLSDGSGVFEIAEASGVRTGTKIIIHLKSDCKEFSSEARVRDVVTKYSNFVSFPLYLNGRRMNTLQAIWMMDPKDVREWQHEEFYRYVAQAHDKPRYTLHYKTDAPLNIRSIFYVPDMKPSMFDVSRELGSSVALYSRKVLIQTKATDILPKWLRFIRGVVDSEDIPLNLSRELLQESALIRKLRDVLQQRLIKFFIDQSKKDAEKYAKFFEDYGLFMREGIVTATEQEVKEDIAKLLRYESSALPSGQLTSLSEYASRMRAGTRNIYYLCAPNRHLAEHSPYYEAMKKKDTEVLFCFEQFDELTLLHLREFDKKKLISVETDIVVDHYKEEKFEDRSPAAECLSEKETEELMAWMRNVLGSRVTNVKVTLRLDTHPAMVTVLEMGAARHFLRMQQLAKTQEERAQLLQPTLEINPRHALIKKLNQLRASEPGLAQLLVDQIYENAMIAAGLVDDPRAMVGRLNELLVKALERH
- ASSAY_NOTES: ADP Glo assay of TRAP1 ATPase activity
- Type: biochemical
- RUN_CONDITIONS: 1 h; compound concentration 50 μM; read-out: ADP-Glo Percent Activation at 50 μM
Quick reference: activation at 50 µM of the listed items.

For orientation, consider the following solved cases.
> print(dat)
                               input.smiles     reported
1  COc1ncc(NC(=O)c2ncc[nH]2)cc1S(=O)(=O)Nc1c(C)cccc1C  120 to 150%
2  COc1ncc(NC(=O)c2coc(N3CCOCC3)n2)cc1S(=O)(=O)Nc1c(C)cccc1C  151 to 180%
3  COc1ncc(NC(=O)c2cccn2C)cc1S(=O)(=O)Nc1c(C)cccc1C  181 to 352%
4  COc1ncc(NC(=O)c2ccnc(N3CCCCC3)c2)cc1S(=O)(=O)Nc1c(C)cccc1C  181 to 352%
5  COc1ncc(NC(=O)c2coc(C3CCCCC3)n2)cc1S(=O)(=O)Nc1c(C)cccc1C  151 to 180%

COc1ncc(NC(=O)c2cnsn2)cc1S(=O)(=O)Nc1c(C)cccc1C yielded activation at 50 µM of 120 to 150%

response.value for COc1ncc(NC(=O)c2cccc(CN3CCCCC3)c2)cc1S(=O)(=O)Nc1c(C)cccc1C (field: activation at 50 µM) = 181 to 352%

Lookup result for COc1ncc(NC(=O)c2ccc(CN3CCCC3)cc2)cc1S(=O)(=O)Nc1c(C)cccc1C ; measured activation at 50 µM: 120 to 150%

Lookup result for COc1ncc(NC(=O)c2ccn(C3CC3)n2)cc1S(=O)(=O)Nc1c(C)cccc1C ; measured activation at 50 µM: 181 to 352%

Given item COc1ncc(NC(=O)c2ccccc2N2CCOCC2)cc1S(=O)(=O)Nc1c(C)cccc1C , the value recorded as its activation at 50 µM is 151 to 180%

Per the records, this compound ( CCc1cc(C(=O)Nc2cnc(OC)c(S(=O)(=O)Nc3c(C)cccc3C)c2)no1 ) has activation at 50 µM equal to 151 to 180%
